targetSystem: NDM-1 (Klebsiella pneumoniae)
Sequence (C7C422 whole entry, looked up, species assumed): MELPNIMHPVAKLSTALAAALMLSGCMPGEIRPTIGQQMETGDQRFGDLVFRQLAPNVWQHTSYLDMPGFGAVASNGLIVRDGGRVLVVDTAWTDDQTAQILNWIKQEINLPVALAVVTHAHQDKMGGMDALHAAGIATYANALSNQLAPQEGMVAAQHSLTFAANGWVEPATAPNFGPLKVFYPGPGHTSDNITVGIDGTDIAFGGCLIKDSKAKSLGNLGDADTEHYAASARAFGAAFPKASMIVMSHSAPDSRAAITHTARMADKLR
measuredParameter: pIC50
Interpret pIC50 as the negative base-10 log of the concentration measured in mol/L.

Param item = NC[C@@H]1CCN(c2ccc(S(=O)(=O)N[C@@H]3CCNC3)c(S(N)(=O)=O)c2-c2nn[nH]n2)C[C@@H]1F (racemic) [Example 7] ; retrieve measured pIC50.
9.17

Report pIC50 for NC[C@@H](O)CNS(=O)(=O)c1ccc(N2CCN(CCO)CC2)c(-c2nnn[nH]2)c1S(N)(=O)=O [Example 47] please.
8.40

Fill in: pIC50 of NCCC1CN(c2ccc(S(=O)(=O)NC[C@H](O)CN)c(S(N)(=O)=O)c2-c2nn[nH]n2)C1 [Example 144] is ___
6.95

Recorded pIC50 for NS(=O)(=O)c1c(S(=O)(=O)N[C@@H]2CCNC2)ccc(N2CC[C@H](O)C2)c1-c1nnn[nH]1 [Example 97] , please?
8.21

// query pIC50 value for entry NC/C=C1\CCCN(c2ccc(S(=O)(=O)NC[C@H](O)CN)c(S(N)(=O)=O)c2-c2nn[nH]n2)C1 (single isomer, unassigned; isomer b) [Example 206]
8.04

What measured pIC50 goes with CN(CCO)CCN(C)c1ccc(S(=O)(=O)NC[C@H](O)CN)c(S(N)(=O)=O)c1-c1nn[nH]n1 [Example 136] ?
6.70

Any idea what pIC50 was measured for NS(=O)(=O)c1c(S(=O)(=O)C2CNC2)ccc(N2CCC3(CCNCC3)CC2)c1-c1nnn[nH]1 [Example 30] ?
8.58

Quick one: pIC50 of NS(=O)(=O)c1c(S(=O)(=O)N[C@@H]2CCNC2)ccc(N2CCCC(O)C2=O)c1-c1nn[nH]n1 (some centres unmarked) [Example 148] ?
9.12

Form field: reported pIC50 of NC[C@@H](O)CNS(=O)(=O)c1ccc(N2CC[C@@H](N)[C@H](F)C2)c(-c2nn[nH]n2)c1S(N)(=O)=O [Example 2]
8.19

Entry NS(=O)(=O)c1c(S(=O)(=O)N[C@@H]2CCNC2)ccc(N2CCC(C(F)F)CC2)c1-c1nnn[nH]1 [Example 90] has what pIC50?
9.37

I am curious: what pIC50 value has been reported for NCCCC1CCN(c2ccc(S(=O)(=O)NC[C@H](O)CN)c(S(N)(=O)=O)c2-c2nn[nH]n2)CC1 [Example 193] ?
9.32

Any idea what pIC50 was measured for NS(=O)(=O)c1c(S(=O)(=O)N[C@@H]2CCNC2)ccc(N2CC3(CCNCC3)C2)c1-c1nnn[nH]1 [Example 113] ?
7.86

Look up pIC50: NC[C@@H](O)CNS(=O)(=O)c1ccc(N2CCOC(CO)C2)c(-c2nn[nH]n2)c1S(N)(=O)=O (some centres unmarked) [Example 20]
9.11

Requested read-out: pIC50. Entry: NC[C@H](N)CNS(=O)(=O)c1ccc(N2CCN(CCO)CC2)c(-c2nnn[nH]2)c1S(N)(=O)=O [Example 49]
8.28
